Where do these numbers come from? They come from PubChem BioAssay AID1963979.

Test system: 361931-004-R-J1-PDC multicell spheroid viability
measurement_protocol: Anticancer human tumor 361931-004-R-J1-PDC patient-derived colon adenocarcinoma cell line growth inhibition [PI3K]
condition: curve of compound
measurement_label: IC50

| compound | target | IC50 |
| --- | --- | --- |
| CCN1CCN(Cc2ccc(Nc3ncc(F)c(-c4cc(F)c5nc(C)n(C(C)C)c5c4)n3)nc2)CC1 | 361931-004-R-J1-PDC multicell spheroid viability | > 1 µM |

Find the recorded IC50 belonging to C#Cc1c(F)ccc2cc(O)cc(-c3ncc4c(N5CC6CCC(C5)N6)nc(OCC56CCCN5CC(F)C6)nc4c3F)c12 (stereo unspecified) and report it.
> 10 µM

// query IC50 value for entry Cn1ncnc1[C@H]1c2n[nH]c(=O)c3cc(F)cc(c23)N[C@@H]1c1ccc(F)cc1
> 0.1 µM

Quick check: IC50 of C[C@@H](NC(=O)c1ncnc(N)c1Cl)c1ncc(C(=O)Nc2cc(C(F)(F)F)c(Cl)cn2)s1 ?
> 10 µM

Recorded IC50 for CC(Cn1ccc(-c2ccc(C#N)c(Cl)c2)n1)NC(=O)c1cc(C(C)O)[nH]n1 (stereo unspecified) , please?
> 10 µM

// query IC50 value for entry CC(=O)c1c(C)c2cnc(Nc3ccc(N4CCNCC4)cn3)nc2n(C2CCCC2)c1=O
> 0.1 µM

* * *

Test system: 361931-004-R-J1-PDC multicell spheroid viability
measurement_protocol: Anticancer human tumor 361931-004-R-J1-PDC cell line growth inhibition [PI3K];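 also: spheroids exposed to agents for seven days before readout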
condition: second compound 0.0316 µM; first compound 0.316 µM; stronger effect = lower value
viability, T/C values for the compounds below.
Record the value in %, omitting the unit from your answer.

Could you share which viability, T/C value was measured for CC1(C)CCC(Nc2ncc(C(F)(F)F)c(-c3c[nH]c4c(P(C)(C)=O)c(C#N)ccc34)n2)CN1 (stereo unspecified) + CC(Nc1ccc2c(c1)OCCn1cc(N3C(=O)OCC3C(F)F)nc1-2)C(N)=O ?
70.8

Field request: viability, T/C | item: Cn1nccc1Nc1nccc(-c2ccn(C(CO)c3ccc(Cl)c(F)c3)c(=O)c2)n1 (stereo unspecified) + CC(Nc1ncnc2nc[nH]c12)c1cc2cccc(Cl)c2c(=O)n1-c1ccccc1
100

# lookup: viability, T/C of Cn1ncc(Cl)c1-c1cc(C(=O)NC(CN)Cc2cccc(F)c2)sc1Cl (stereo unspecified) + COc1c(OCCCN2CCOCC2)ccc2c3n(c(=NC(=O)c4cnc(N)nc4)nc12)CCN3
90.6

Tell me the measured viability, T/C of Cn1nccc1Nc1nccc(-c2ccn(C(CO)c3ccc(Cl)c(F)c3)c(=O)c2)n1 (stereo unspecified) + Cc1nc(NC(=O)N2CCCC2C(N)=O)sc1-c1ccnc(C(C)(C)C(F)(F)F)c1 , please.
90.4

Which viability, T/C is listed for CC1(C)CCC(CN2CCN(c3ccc(C(=O)NS(=O)(=O)c4ccc(NCC5CCOCC5)c([N+](=O)[O-])c4)c(Oc4cnc5[nH]ccc5c4)c3)CC2)=C(c2ccc(Cl)cc2)C1 + COc1c(OCCCN2CCOCC2)ccc2c3n(c(=NC(=O)c4cnc(N)nc4)nc12)CCN3 ?
96.2

Reported viability, T/C for Cn1nccc1Nc1nccc(-c2ccn(C(CO)c3ccc(Cl)c(F)c3)c(=O)c2)n1 (stereo unspecified) + CC(Nc1ccc2c(c1)OCCn1cc(N3C(=O)OCC3C(F)F)nc1-2)C(N)=O : what is it?
85.8

Name the reported viability, T/C value associated with the compound C[C@@H](NC(=O)c1ncnc(N)c1Cl)c1ncc(C(=O)Nc2cc(C(F)(F)F)c(Cl)cn2)s1 + COc1c(OCCCN2CCOCC2)ccc2c3n(c(=NC(=O)c4cnc(N)nc4)nc12)CCN3
96.6

Find the recorded viability, T/C belonging to CC1(C)CCC(Nc2ncc(C(F)(F)F)c(-c3c[nH]c4c(P(C)(C)=O)c(C#N)ccc34)n2)CN1 (stereo unspecified) + CC(Nc1ncnc2nc[nH]c12)c1cc2cccc(Cl)c2c(=O)n1-c1ccccc1 and report it.
104

Which viability, T/C is listed for C[C@@H](NC(=O)c1ncnc(N)c1Cl)c1ncc(C(=O)Nc2cc(C(F)(F)F)c(Cl)cn2)s1 + CC(Nc1ncnc2nc[nH]c12)c1cc2cccc(Cl)c2c(=O)n1-c1ccccc1 ?
99.2

Quick one: viability, T/C for C[C@@H](NC(=O)c1ncnc(N)c1Cl)c1ncc(C(=O)Nc2cc(C(F)(F)F)c(Cl)cn2)s1 + Cc1nc(NC(=O)N2CCCC2C(N)=O)sc1-c1ccnc(C(C)(C)C(F)(F)F)c1 ?
80.8

Entry CCCS(=O)(=O)Nc1ccc(F)c(C(=O)c2c[nH]c3ncc(-c4ccc(Cl)cc4)cc23)c1F + CC(Nc1ccc2c(c1)OCCn1cc(N3C(=O)OCC3C(F)F)nc1-2)C(N)=O : reported viability, T/C = ?
85.5

* * *

# viability, T/C annotations
Test system: 361931-004-R-J1-PDC multicell spheroid viability
measurement_protocol: Anticancer human tumor 361931-004-R-J1-PDC cell line growth inhibition [PI3K];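 also: spheroids exposed to agents for seven days before readout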
condition: second compound 10 µM; first compound 0.0316 µM; stronger effect = lower value
Answer with a number only, understood to be in %.

| compound | reported_measurement |
| --- | --- |
| CC(C)n1nc(-c2ccc3oc(N)nc3c2)c2c(N)ncnc21 + CC(Nc1ncnc2nc[nH]c12)c1cc2cccc(Cl)c2c(=O)n1-c1ccccc1 | 103 |
| CC(Cn1ccc(-c2ccc(C#N)c(Cl)c2)n1)NC(=O)c1cc(C(C)O)[nH]n1 (stereo unspecified) + Cc1nc(NC(=O)N2CCCC2C(N)=O)sc1-c1ccnc(C(C)(C)C(F)(F)F)c1 | 68 |

What value of measured viability, T/C is listed for CC(C)NCC(C(=O)N1CCN(c2ncnc3c2C(C)CC3O)CC1)c1ccc(Cl)cc1 (stereo unspecified) + Cc1nc(NC(=O)N2CCCC2C(N)=O)sc1-c1ccnc(C(C)(C)C(F)(F)F)c1 ?
62.1

Field request: viability, T/C | item: C#Cc1c(F)ccc2cc(O)cc(-c3ncc4c(N5CC6CCC(C5)N6)nc(OCC56CCCN5CC(F)C6)nc4c3F)c12 (stereo unspecified) + Cc1nc(NC(=O)N2CCCC2C(N)=O)sc1-c1ccnc(C(C)(C)C(F)(F)F)c1
62.2

* * *

Measured viability, T/C, listed per entry.
Tested on: 361931-004-R-J1-PDC multicell spheroid viability
measurement_protocol: Anticancer human tumor 361931-004-R-J1-PDC cell line growth inhibition [PI3K];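 also: spheroids exposed to agents for seven days before readout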
condition: second compound 0.316 µM; first compound 0.1 µM; stronger effect = lower value
// note: answer is a bare numeric in %

Consider the compound shown here: CC1(C)CCC(CN2CCN(c3ccc(C(=O)NS(=O)(=O)c4ccc(NCC5CCOCC5)c([N+](=O)[O-])c4)c(Oc4cnc5[nH]ccc5c4)c3)CC2)=C(c2ccc(Cl)cc2)C1 + Cc1nc(NC(=O)N2CCCC2C(N)=O)sc1-c1ccnc(C(C)(C)C(F)(F)F)c1 What is its recorded viability, T/C?
107

// returns reported viability, T/C for input CNC(=O)c1ccc(N2C(=S)N(c3ccc(C#N)c(C(F)(F)F)c3)C(=O)C2(C)C)cc1F + COc1c(OCCCN2CCOCC2)ccc2c3n(c(=NC(=O)c4cnc(N)nc4)nc12)CCN3
53

Which viability, T/C reading was recorded for the compound C[C@@H](NC(=O)c1ncnc(N)c1Cl)c1ncc(C(=O)Nc2cc(C(F)(F)F)c(Cl)cn2)s1 + CC(Nc1ncnc2nc[nH]c12)c1cc2cccc(Cl)c2c(=O)n1-c1ccccc1 ?
103

Look up viability, T/C for this compound: C=CC(=O)N1CCN(c2nc(=O)n(-c3c(C)ccnc3C(C)C)c3nc(-c4c(O)cccc4F)c(F)cc23)C(C)C1 (stereo not given) + CC(Nc1ncnc2nc[nH]c12)c1cc2cccc(Cl)c2c(=O)n1-c1ccccc1
108

Any idea what its viability, T/C is? The compound is CCN1CCN(Cc2ccc(Nc3ncc(F)c(-c4cc(F)c5nc(C)n(C(C)C)c5c4)n3)nc2)CC1 + CC(Nc1ncnc2nc[nH]c12)c1cc2cccc(Cl)c2c(=O)n1-c1ccccc1
110

* * *

Tested on: 361931-004-R-J1-PDC multicell spheroid viability
measurement_protocol: Anticancer human tumor 361931-004-R-J1-PDC cell line growth inhibition [PI3K];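 also: spheroids exposed to agents for seven days before readout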
condition: compound 0.316 µM; stronger effect = lower value
measurement_label: viability, T/C

For orientation, consider the following solved cases.
| molecule | viability, T/C |
| --- | --- |
| C=CC(=O)N1CCN(c2nc(=O)n(-c3c(C)ccnc3C(C)C)c3nc(-c4c(O)cccc4F)c(F)cc23)C(C)C1 (stereo not given) | 105% [middle of 4 runs] |
| Cn1nccc1Nc1nccc(-c2ccn(C(CO)c3ccc(Cl)c(F)c3)c(=O)c2)n1 (stereo not given) | 97% [middle of 4 runs] |
| CC(Nc1ccc2c(c1)OCCn1cc(N3C(=O)OCC3C(F)F)nc1-2)C(N)=O (stereo not given) | 92.9% [middle of 8 runs] |
| CC(Nc1ncnc2nc[nH]c12)c1cc2cccc(Cl)c2c(=O)n1-c1ccccc1 (stereo not given) | 105% [middle of 8 runs] |

Quick one: viability, T/C for CCCS(=O)(=O)Nc1ccc(F)c(C(=O)c2c[nH]c3ncc(-c4ccc(Cl)cc4)cc23)c1F ?
97.1% [middle of 4 runs]
